Experiment: PK profile in Wistar rats (plasma, brain, urine)
Format: in vivo, rat
Details: male, Wistar, rat; plasma; IV 1 mg/kg
endpointLabel: half-life (min)
A number alone suffices; assume min.

Form field: reported half-life of COc1cc(SC(F)(F)F)c(OC)cc1CCN [Compound I-1]
46.8

====

Assay: PK profile in C57BL/6J mice (plasma, brain)
Type: in vivo, mouse
Settings: male, C57BL/6J, mouse, sc; brain; s.c. 3 mg/kg
endpointLabel: MRT last (h)
The response must be a number in h with no trailing unit.

Which MRT last is listed for COc1cc(SC(F)(F)F)c(OC)cc1CCN [Compound I-1] ?
4.89

Values were extracted from patent US20250236589A1.
